# System: Haemophilus influenzae 76
# assayProcedure: MIC, standard agar-dilution assay
# Type: cell-based
readoutType: MIC

compound: CNC(CC(C)C)C(=O)NC1C(=O)NC(CC(N)=O)C(=O)NC2C(=O)NC3C(=O)NC(C(=O)NC(C(=O)O)c4cc(O)cc(O)c4-c4cc3ccc4O)C(OC3CC(C)(N)C(O)C(C)O3)c3ccc(c(Cl)c3)Oc3cc2cc(c3OC2OC(CO)C(O)C(O)C2OC2CC(C)(NCc3ccc(Cl)cc3)C(O)C(C)O2)Oc2ccc(cc2Cl)C1O (stereo not shown)
testResult: > 128 µg/mL

----------
# Tested on: Klebsiella pneumoniae X68
# assayProcedure: MIC, standard agar-dilution assay
# Assay type: cell-based

molecule: CCCCCCC(=O)NC1(C)CC(OC2c3ccc(c(Cl)c3)Oc3cc4cc(c3OC3OC(CO)C(O)C(O)C3OC3CC(C)(N)C(O)C(C)O3)Oc3ccc(cc3Cl)C(O)C(NC(=O)C(CC(C)C)NC)C(=O)NC(CC(N)=O)C(=O)NC4C(=O)NC3C(=O)NC2C(=O)NC(C(=O)O)c2cc(O)cc(O)c2-c2cc3ccc2O)OC(C)C1O (centres unmarked)
measurementTarget: Klebsiella pneumoniae X68
MIC: > 128 µg/mL
--
molecule: CCCCCNC1(C)CC(OC2c3ccc(cc3)Oc3cc4cc(c3O)Oc3ccc(cc3Cl)C(O)C(NC(=O)C(CC(C)C)NC)C(=O)NC(CC(N)=O)C(=O)NC4C(=O)NC3C(=O)NC2C(=O)NC(C(=O)O)c2cc(O)cc(O)c2-c2cc3ccc2O)OC(C)C1O (centres unmarked)
measurementTarget: Klebsiella pneumoniae X68
MIC: > 128 µg/mL

The values you see were collected from patent US5591714A.
